Target: Diaphorase
Experiment: peptide array, 10 uM labeled diaphorase, with FAD
The reader will find reported fluorescence values listed item by item below.
// no unit, no text: just the number

ELFGALFKGGSG : 25300
RQAYLFGGSG : 64000
RNWYGGS [RNWYGGSG] : 48600

Quick note, fluorescence for `LAKQNRVEDGSG` landed at 3700
